- Test system: U87 cells
- PROTOCOL_DETAILS: Cell viability assay (Resazurin), uninfected U87 cells
- Format: cell-based, Human
- MEASUREMENT_PARAMETERS: uninfected U87, 72 h; read-out: Viability CC50 [µM] (95%-CI)
REPORTED_METRIC: CC50

Please look up its CC50: O=C(Nc1ccc(I)cc1)N1CCC(n2c(=O)[nH]c3c(Br)cccc32)CC1 [TH5487]
> 50 µM

The reported measurements were obtained from paper PMC7823652.
